- system: human IRAK4 (Homo sapiens, UniProt Q9NWZ3)
- Sequence (Q9NWZ3 whole entry): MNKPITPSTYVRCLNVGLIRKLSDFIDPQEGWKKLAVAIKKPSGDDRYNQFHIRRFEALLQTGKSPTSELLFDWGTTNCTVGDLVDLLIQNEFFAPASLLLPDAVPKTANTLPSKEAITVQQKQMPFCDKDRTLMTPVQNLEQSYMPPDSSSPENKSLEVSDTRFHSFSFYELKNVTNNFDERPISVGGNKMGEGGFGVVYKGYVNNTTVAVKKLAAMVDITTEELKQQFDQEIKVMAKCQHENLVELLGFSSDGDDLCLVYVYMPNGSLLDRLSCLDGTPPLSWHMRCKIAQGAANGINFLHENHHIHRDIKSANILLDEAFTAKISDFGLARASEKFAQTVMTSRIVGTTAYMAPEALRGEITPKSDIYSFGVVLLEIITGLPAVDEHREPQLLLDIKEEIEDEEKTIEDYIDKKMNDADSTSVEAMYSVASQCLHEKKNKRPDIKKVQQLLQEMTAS
pIC50: −log10 of the molar value.
recorded.metric: pIC50

Study these solved cases before continuing.
CC1(O)CCN(C2CN(c3nc(N[C@H]4C[C@H](O)C4)nc4c3cnn4-c3cccc(C(F)(F)F)c3)C2)CC1 [Example I-79] :: 8.11
CC(C)(O)C1CCN(c2nc(N[C@@H]3CNC(=O)C3)nc3c2cnn3-c2cccc(OC(F)(F)F)c2)CC1 [III-1] :: 7.72

[I] CC(C)(O)CC1CN(c2nc(N[C@H]3C[C@H](S(C)(=O)=O)C3)nc3c2cnn3-c2cccc(C(F)(F)F)c2)C1 [Example I-67]
[II] NC1CCN(c2nc(NC3CCS(=O)(=O)CC3)nc3c2cnn3-c2cccc(C(F)(F)F)c2)CC1(F)F (racemic) [Example I-105]
Req: Please state the entry with greater pIC50 among I and II . Field: selected label. Fill in the label of the entry you choose.
Resp: I

[P] O=S1(=O)CCC(Nc2nc(N3CC(N4CCOCC4)C3)c3cnn(-c4cccc(C(F)(F)F)c4)c3n2)CC1 [Example I-23]
[Q] C[C@H]1CN(c2nc(N[C@H]3C[C@H](S(C)(=O)=O)C3)nc3c2cnn3-c2cccc(C(F)F)c2)C[C@@H]1O (single isomer, unassigned) [II-17-2]
Req: Sorting ascending by pIC50, which comes first: P or Q ? Field: selected label. Fill in the label of the entry you choose.
Resp: P

[a] CS(=O)(=O)N1CC(Nc2nc(N3CC(N4CCOCC4)C3)c3cnn(-c4cccc(C(F)F)c4)c3n2)C1 [II-13]
[b] CN(C)C1CN(c2nc(NC3CCS(=O)(=O)CC3)nc3c2cnn3-c2cccc(C(F)(F)F)c2)C1 [Example I-42]
Req: Please state the entry with greater pIC50 among a and b . Field: selected label. Fill in the label of the entry you choose.
Resp: a

[a] CC1(O)CCN(C2CN(c3nc(NC4CCS(=O)(=O)CC4)nc4c3cnn4-c3cccc(C(F)(F)F)c3)C2)CC1 [Example I-80]
[b] CC(C)(O)C1CCN(c2nc(N[C@@H]3CNC(=O)C3)nc3c2cnn3-c2cccc(C(F)(F)F)c2)CC1 [Example I-2-1]
[c] CC(C)(N)C1CCN(c2nc(N[C@@H]3CNC(=O)C3)nc3c2cnn3-c2cccc(C(F)(F)F)c2)CC1 [Example I-47]
Req: Highest pIC50 first, then in falling order down to the smallest. # the answer lists labels in the order requested
Resp: c, b, a
(c: 9.06, b: 8.14, a: 7.94)

[A] CCC1(O)CN(c2nc(N[C@H]3C[C@H](S(C)(=O)=O)C3)nc3c2cnn3-c2cccc(C(F)(F)F)c2)C1 [Example I-92]
[B] CC(C)(O)C1CCN(c2nc(N[C@@H]3CCCNC3=O)nc3c2cnn3-c2cccc(C(F)(F)F)c2)CC1 [Example I-11-2]
[C] CC(C)(O)C1CCN(c2nc(NC3CC(=O)NC3(C)C)nc3c2cnn3-c2cccc(C(F)(F)F)c2)CC1 (stereo not shown) [Example I-6]
[D] CC1(Nc2nc(N3CC(N4CCOCC4)C3)c3cnn(-c4cccc(C(F)(F)F)c4)c3n2)CCS(=O)(=O)C1 (stereo not shown) [Example I-43]
[E] CS(=O)(=O)N1CC(Nc2nc(N3CCC(C4(N)CC4)CC3)c3cnn(-c4cccc(C(F)F)c4)c3n2)C1 [II-20]
Req: Highest pIC50 first, then in falling order down to the smallest. # the answer lists labels in the order requested
Resp: E, A, C, B, D
(E: 8.86, A: 8.25, C: 7.11, B: 6.82, D: 6.55)

[a] CC(C)(N)C1CN(c2nc(NC3CCS(=O)(=O)CC3)nc3c2cnn3-c2cccc(C(F)(F)F)c2)C1 [Example I-45]
[b] NC1CCN(c2nc(N[C@H]3C[C@H](O)C3)nc3c2cnn3-c2cccc(C(F)(F)F)c2)CC1(F)F (mixture of isomers) [Example I-104]
Req: Sorting ascending by pIC50, which comes first: a or b ? Field: selected label. Fill in the label of the entry you choose.
Resp: b
(b: 6.75, a: 8.29)

[P] O[C@H]1C[C@@H](Nc2nc(N3CC(N4CCC(F)(F)C4)C3)c3cnn(-c4cccc(C(F)(F)F)c4)c3n2)C1 [Example I-118]
[Q] CCC1(O)CN(c2nc(N[C@@H]3CCOC3)nc3c2cnn3-c2cccc(S(C)(=O)=O)c2)C1 [Example V-2]
Req: Sorting ascending by pIC50, which comes first: P or Q ? Field: selected label. Fill in the label of the entry you choose.
Resp: Q
(Q: 6.75, P: 8.29)

[I] O=C1C[C@H](Nc2nc(N3CCOCC3)c3cnn(-c4cccc(C(F)(F)F)c4)c3n2)CN1 [Example I-28]
[II] C[C@@]1(O)CCN(c2nc(N[C@H]3C[C@H](S(C)(=O)=O)C3)nc3c2cnn3-c2cccc(C(F)F)c2)C1 [II-35]
Req: Please state the entry with greater pIC50 among I and II . Field: selected label. Fill in the label of the entry you choose.
Resp: II
(II: 8.17, I: 7.62)
